B1: Azoarcus group I ribozyme (parent)
chain: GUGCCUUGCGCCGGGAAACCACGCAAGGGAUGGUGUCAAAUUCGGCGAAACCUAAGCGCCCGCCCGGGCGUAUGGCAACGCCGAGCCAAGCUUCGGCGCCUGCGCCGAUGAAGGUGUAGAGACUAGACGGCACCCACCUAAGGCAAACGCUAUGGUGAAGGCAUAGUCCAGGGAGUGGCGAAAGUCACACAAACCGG

- Variants of: B1
- run-description: reverse-splicing fitness (ratio to wild type); higher = more active; in vitro selection; Mg2+ level not given
This section presents variants with their documented reverse-splicing fitness values.
parameter: reverse-splicing fitness

{"mutation-notation": "C82A A120C A145U C150G U176C", "parameter": "reverse-splicing fitness", "recorded-number": 0.0141}
{"mutation-notation": "C82A A111U A120C A145U C150U", "parameter": "reverse-splicing fitness", "recorded-number": 0.0216}
{"mutation-notation": "C82A A111G A120U A145G C150G C169A U176G", "parameter": "reverse-splicing fitness", "recorded-number": 0.00369}
{"mutation-notation": "A120C A145C U176G", "parameter": "reverse-splicing fitness", "recorded-number": 0.266}
{"mutation-notation": "C82A A111U A145U C150G C169U U176A", "parameter": "reverse-splicing fitness", "recorded-number": 0.00775}
{"mutation-notation": "C82A A120C A145U C150G U176G", "parameter": "reverse-splicing fitness", "recorded-number": 0.00376}
{"mutation-notation": "C82U A145G C150A U176G", "parameter": "reverse-splicing fitness", "recorded-number": 0.0228}
{"mutation-notation": "C82A A120G A145C C150G C169A U176G", "parameter": "reverse-splicing fitness", "recorded-number": 0.00399}
{"mutation-notation": "C82G A111U A145U C169G U176C", "parameter": "reverse-splicing fitness", "recorded-number": 0.0128}
{"mutation-notation": "A111U A120C A145G C169G U176G", "parameter": "reverse-splicing fitness", "recorded-number": 0.00461}
{"mutation-notation": "A111G A120U A145G C150G C169A U176G", "parameter": "reverse-splicing fitness", "recorded-number": 0.00395}
{"mutation-notation": "C82A A111G A120C A145G C150A C169U U176C", "parameter": "reverse-splicing fitness", "recorded-number": 0.0154}
{"mutation-notation": "C82G A111U A120U A145U C150G C169U U176G", "parameter": "reverse-splicing fitness", "recorded-number": 0.00286}
{"mutation-notation": "C82A A111U A120G A145U C169G U176C", "parameter": "reverse-splicing fitness", "recorded-number": 0.014}
{"mutation-notation": "A120G A145C C150G C169G U176A", "parameter": "reverse-splicing fitness", "recorded-number": 0.0244}
{"mutation-notation": "A111G A120C C150U U176A", "parameter": "reverse-splicing fitness", "recorded-number": 0.314}
{"mutation-notation": "C82G A111G A120G A145G C169G U176A", "parameter": "reverse-splicing fitness", "recorded-number": 0.0184}
{"mutation-notation": "A111U A120G C150A U176C", "parameter": "reverse-splicing fitness", "recorded-number": 0.0216}
{"mutation-notation": "C82A A111U A120U A145G C150G C169U", "parameter": "reverse-splicing fitness", "recorded-number": 0.00854}
{"mutation-notation": "C82U A111C A145U C150U C169A U176A", "parameter": "reverse-splicing fitness", "recorded-number": 0.0126}
{"mutation-notation": "A111G A120C C150A C169A U176C", "parameter": "reverse-splicing fitness", "recorded-number": 0.0167}
{"mutation-notation": "C82U A111U A120G A145C C150G C169G U176C", "parameter": "reverse-splicing fitness", "recorded-number": 0.0069}
{"mutation-notation": "A111G A120C C150A C169U U176C", "parameter": "reverse-splicing fitness", "recorded-number": 0.022}
{"mutation-notation": "C82A A111C A120U A145C C150A U176C", "parameter": "reverse-splicing fitness", "recorded-number": 0.00528}
{"mutation-notation": "C82A A111C A145G U176C", "parameter": "reverse-splicing fitness", "recorded-number": 0.0992}
{"mutation-notation": "A111U C150G C169A", "parameter": "reverse-splicing fitness", "recorded-number": 0.00956}
{"mutation-notation": "C82A A111G A120G A145U C150A U176C", "parameter": "reverse-splicing fitness", "recorded-number": 0.0154}
{"mutation-notation": "C82G A111G A120U A145G C169U U176C", "parameter": "reverse-splicing fitness", "recorded-number": 0.00485}
{"mutation-notation": "C82A A120G A145U C150G", "parameter": "reverse-splicing fitness", "recorded-number": 0.00781}
{"mutation-notation": "C82A A111C A120G A145C", "parameter": "reverse-splicing fitness", "recorded-number": 0.0129}
{"mutation-notation": "C82U A111C A120C A145G C150G C169G U176A", "parameter": "reverse-splicing fitness", "recorded-number": 0.00967}
{"mutation-notation": "A111U A120U A145C C150U C169A U176A", "parameter": "reverse-splicing fitness", "recorded-number": 0.00251}
{"mutation-notation": "A111U A120G C150A C169U", "parameter": "reverse-splicing fitness", "recorded-number": 0.0186}
{"mutation-notation": "C82G A111G A120G A145C C150U", "parameter": "reverse-splicing fitness", "recorded-number": 0.00975}
{"mutation-notation": "A111C A120U A145U U176C", "parameter": "reverse-splicing fitness", "recorded-number": 0.271}
{"mutation-notation": "A120U A145C", "parameter": "reverse-splicing fitness", "recorded-number": 0.787}
{"mutation-notation": "C82A A111G A120C A145G U176A", "parameter": "reverse-splicing fitness", "recorded-number": 0.0183}
{"mutation-notation": "A120G A145U C150U U176C", "parameter": "reverse-splicing fitness", "recorded-number": 0.184}
{"mutation-notation": "C82G A111C A120C C150U C169G", "parameter": "reverse-splicing fitness", "recorded-number": 0.00825}
{"mutation-notation": "C82U A111U A145G U176G", "parameter": "reverse-splicing fitness", "recorded-number": 0.0229}
{"mutation-notation": "C82A A111G A120G A145C C150G C169G U176A", "parameter": "reverse-splicing fitness", "recorded-number": 0.00955}
{"mutation-notation": "C82U A111G A120G A145G U176G", "parameter": "reverse-splicing fitness", "recorded-number": 0.00429}
{"mutation-notation": "A120U A145C C150G C169G U176G", "parameter": "reverse-splicing fitness", "recorded-number": 0.00252}
{"mutation-notation": "A111U A120U A145C C150G U176A", "parameter": "reverse-splicing fitness", "recorded-number": 0.0107}
{"mutation-notation": "C82A C150G C169A U176G", "parameter": "reverse-splicing fitness", "recorded-number": 0.00678}
{"mutation-notation": "C82G A111U A145G C150U C169U U176C", "parameter": "reverse-splicing fitness", "recorded-number": 0.0146}
{"mutation-notation": "C82U A111U A120G A145U C150U C169G", "parameter": "reverse-splicing fitness", "recorded-number": 0.00885}
{"mutation-notation": "A111C A120C A145G C150G C169G U176C", "parameter": "reverse-splicing fitness", "recorded-number": 0.0119}
{"mutation-notation": "C82G A111G A120U C150G C169U U176C", "parameter": "reverse-splicing fitness", "recorded-number": 0.00723}
{"mutation-notation": "C82U A111C A120G C150U C169G", "parameter": "reverse-splicing fitness", "recorded-number": 0.00848}
{"mutation-notation": "C82A A111G A120U A145G U176G", "parameter": "reverse-splicing fitness", "recorded-number": 0.00317}
{"mutation-notation": "C82A A111C A120U A145C C150A C169A U176A", "parameter": "reverse-splicing fitness", "recorded-number": 0.00291}
{"mutation-notation": "C82A A111C A120U C150A C169A U176G", "parameter": "reverse-splicing fitness", "recorded-number": 0.00277}
{"mutation-notation": "C82G A111G A145C C150G C169A U176G", "parameter": "reverse-splicing fitness", "recorded-number": 0.00615}
{"mutation-notation": "C82A A120G A145C C150A", "parameter": "reverse-splicing fitness", "recorded-number": 0.00678}
{"mutation-notation": "C82U A111C A120U A145G C169A", "parameter": "reverse-splicing fitness", "recorded-number": 0.00276}
{"mutation-notation": "C82A A120G A145G C169U", "parameter": "reverse-splicing fitness", "recorded-number": 0.0148}
{"mutation-notation": "A111C A120C C150U C169A", "parameter": "reverse-splicing fitness", "recorded-number": 0.0123}
{"mutation-notation": "C82A A120U A145G C150U C169U U176A", "parameter": "reverse-splicing fitness", "recorded-number": 0.00414}
{"mutation-notation": "A120G C150U U176A", "parameter": "reverse-splicing fitness", "recorded-number": 0.125}
{"mutation-notation": "A120U A145G C150U U176C", "parameter": "reverse-splicing fitness", "recorded-number": 0.532}
{"mutation-notation": "C82G A111C A120G A145C C150U C169U U176G", "parameter": "reverse-splicing fitness", "recorded-number": 0.0048}
{"mutation-notation": "C82G A120U A145C C150A C169U U176C", "parameter": "reverse-splicing fitness", "recorded-number": 0.00224}
{"mutation-notation": "C82U A111U A120U A145G C150A C169U U176C", "parameter": "reverse-splicing fitness", "recorded-number": 0.00345}
{"mutation-notation": "C82A A111U A120G A145U C150G C169U U176C", "parameter": "reverse-splicing fitness", "recorded-number": 0.0125}
{"mutation-notation": "C82G A120U A145U C150A C169A U176A", "parameter": "reverse-splicing fitness", "recorded-number": 0.00218}
{"mutation-notation": "C82A C150G C169G U176C", "parameter": "reverse-splicing fitness", "recorded-number": 0.00553}
{"mutation-notation": "A111G A120U A145C C150U C169U U176C", "parameter": "reverse-splicing fitness", "recorded-number": 0.00282}
{"mutation-notation": "C82U A111G A120U A145G C169U U176C", "parameter": "reverse-splicing fitness", "recorded-number": 0.00362}
{"mutation-notation": "A111G A120C A145U C150A C169G U176C", "parameter": "reverse-splicing fitness", "recorded-number": 0.011}
{"mutation-notation": "C82G A111C A120U A145C C169A U176C", "parameter": "reverse-splicing fitness", "recorded-number": 0.00237}
{"mutation-notation": "A111U A120G A145C C150A C169A", "parameter": "reverse-splicing fitness", "recorded-number": 0.00967}
{"mutation-notation": "C82U A111G A145U C150U C169G", "parameter": "reverse-splicing fitness", "recorded-number": 0.00858}
{"mutation-notation": "C82A A111G A120G A145C C150A C169G U176C", "parameter": "reverse-splicing fitness", "recorded-number": 0.0158}
{"mutation-notation": "A111U A120G A145U C150A U176C", "parameter": "reverse-splicing fitness", "recorded-number": 0.018}
{"mutation-notation": "C82A A120G C169U U176A", "parameter": "reverse-splicing fitness", "recorded-number": 0.0233}
{"mutation-notation": "C82G A111C A120U A145U C150G", "parameter": "reverse-splicing fitness", "recorded-number": 0.00826}
{"mutation-notation": "C82U A120U A145C C150A", "parameter": "reverse-splicing fitness", "recorded-number": 0.00884}
{"mutation-notation": "C82U A111C A120U A145C C150G C169G", "parameter": "reverse-splicing fitness", "recorded-number": 0.00351}
